% max activation values for the binders below.
Target: human MC3R (human, UniProt P41968 1-323)
Sequence (P41968 whole entry): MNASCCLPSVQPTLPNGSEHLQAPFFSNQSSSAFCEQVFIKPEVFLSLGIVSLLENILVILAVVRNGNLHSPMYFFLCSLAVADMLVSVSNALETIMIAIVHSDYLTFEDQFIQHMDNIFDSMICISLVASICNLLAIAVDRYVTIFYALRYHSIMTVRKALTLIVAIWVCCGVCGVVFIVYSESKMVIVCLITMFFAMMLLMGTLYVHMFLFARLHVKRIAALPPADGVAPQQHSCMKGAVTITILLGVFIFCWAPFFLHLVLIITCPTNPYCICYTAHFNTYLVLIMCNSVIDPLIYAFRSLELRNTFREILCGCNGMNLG
Experiment: cell-based or functional assay
Starred links: 1 amine or outer side, 2 acyl side, 3 side chain; linkers in the order of their positions; H or OH if unused. Positions of bridges follow the written chain, without caps; N, C: chain ends. Non-standard residues stand in square brackets, D forms with d. dTyr(O-Me) = O-methyl-D-tyrosine, COc1ccc(C[C@@H](N[*:1])C(=O)[*:2])cc1; Phe(4-Br) = N[C@@H](Cc1ccc(Br)cc1)C(=O)O; dPhe(4-Br) = N[C@H](Cc1ccc(Br)cc1)C(=O)O; NMeR = CN[C@@H](CCCNC(=N)N)C(=O)O; Cit = NC(=O)NCCC[C@H](N)C(=O)O; Aib = CC(C)(N)C(=O)O
Provide only the numeric value, understood in %.

Here are 3 binders together with their reported answers.
>  <binder>
Ac-RC[dA]R[Phe(4-Br)]R[dW]C-NH2 (disulfide 2-8) [CTX-1215]

>  <% max activation (%)>
2.1

$$$$
>  <binder>
Ac-RC[Aib]R[dF][Cit][dW]C-NH2 (disulfide 2-8) [CTX-1271]

>  <% max activation (%)>
16

$$$$
>  <binder>
Ac-RC[dA]R[dTyr(O-Me)]R[dW]C-NH2 (disulfide 2-8; SMILES COc1ccc(C[C@H]2NC(=O)[C@H](CCCNC(=N)N)NC(=O)[C@@H](C)NC(=O)[C@@H](NC(=O)[C@H](CCCNC(=N)N)NC(C)=O)CSSC[C@@H](C(N)=O)NC(=O)[C@@H](Cc3c[nH]c4ccccc34)NC(=O)[C@H](CCCNC(=N)N)NC2=O)cc1) [CTX-1238]

>  <% max activation (%)>
21

$$$$

Task: Please report % max activation for the following binder: Ac-RC[dA]R[dF][dR][dW]C-NH2 (disulfide 2-8; SMILES CC(=O)N[C@@H](CCCNC(=N)N)C(=O)N[C@H]1CSSC[C@@H](C(N)=O)NC(=O)[C@@H](Cc2c[nH]c3ccccc23)NC(=O)[C@@H](CCCNC(=N)N)NC(=O)[C@@H](Cc2ccccc2)NC(=O)[C@H](CCCNC(=N)N)NC(=O)[C@@H](C)NC1=O) [CTX-1283]
Result: 7.8

Task: Item Ac-RC[dA][NMeR][dPhe(4-Br)]R[dW]C-NH2 (disulfide 2-8; SMILES CC(=O)N[C@@H](CCCNC(=N)N)C(=O)N[C@H]1CSSC[C@@H](C(N)=O)NC(=O)[C@@H](Cc2c[nH]c3ccccc23)NC(=O)[C@H](CCCNC(=N)N)NC(=O)[C@@H](Cc2ccc(Br)cc2)NC(=O)[C@H](CCCNC(=N)N)N(C)C(=O)[C@@H](C)NC1=O) [CTX-1248] : provide % max activation
Result: 18

Task: Supply measured % max activation of Ac-RC[Aib]R[dPhe(4-Br)]R[dW]C-NH2 (disulfide 2-8; SMILES CC(=O)N[C@@H](CCCNC(=N)N)C(=O)N[C@H]1CSSC[C@@H](C(N)=O)NC(=O)[C@@H](Cc2c[nH]c3ccccc23)NC(=O)[C@H](CCCNC(=N)N)NC(=O)[C@@H](Cc2ccc(Br)cc2)NC(=O)[C@H](CCCNC(=N)N)NC(=O)C(C)(C)NC1=O) [CTX-1246] in your reply.
Result: 21

Attribution: patent US20240391954A1
